- system-under-test: Serotonin (5-Hydroxytryptamine) 5-HT1A (Homo sapiens)
- Construct: expressed in transfected cells; host or cells: CHO cells
- Sequence (P08908 whole entry): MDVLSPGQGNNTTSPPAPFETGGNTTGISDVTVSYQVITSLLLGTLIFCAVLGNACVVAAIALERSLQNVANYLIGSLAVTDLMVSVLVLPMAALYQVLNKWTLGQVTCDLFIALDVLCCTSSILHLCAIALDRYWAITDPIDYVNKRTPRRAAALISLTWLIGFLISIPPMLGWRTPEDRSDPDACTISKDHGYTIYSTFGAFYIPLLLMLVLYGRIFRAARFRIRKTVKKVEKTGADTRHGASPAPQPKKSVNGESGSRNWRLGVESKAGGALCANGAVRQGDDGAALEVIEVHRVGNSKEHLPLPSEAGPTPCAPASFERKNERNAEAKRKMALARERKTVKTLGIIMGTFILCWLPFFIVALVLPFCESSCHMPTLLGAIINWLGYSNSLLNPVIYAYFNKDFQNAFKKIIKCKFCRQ
- assay-remarks: Radioligand binding, 5-HT1A ([3H] 8-OH-DPAT)
- measurement-setup: 10 μM
reported-metric: inhibition at 10 µM

Examples with their reported inhibition at 10 µM follow.
{"columns": ["query-smiles", "inhibition at 10 µM"],
 "data": [
  ["FC(F)(F)c1ccc2c(c1)N(CCCC1CCNCC1)c1ccccc1S2", "53%"],
  ["CNCC(=O)NCCN1CCC(CCCN2c3ccccc3Sc3ccc(C(F)(F)F)cc32)CC1", "65%"],
  ["NCC(=O)NCCN1CCN(CCCN2c3ccccc3Sc3ccc(C(F)(F)F)cc32)CC1", "89%"],
  ["FC(F)(F)c1ccc2c(c1)N(CCCN1CCNCC1)c1ccccc1S2", "26%"]
]}

Supply recorded inhibition at 10 µM for `CN(C)S(=O)(=O)c1ccc2c(c1)N(CCCN1CCN(CCN)CC1)c1ccccc1S2` here.
87%

Find the measured inhibition at 10 µM of `NCCCN1CCC(CCCN2c3ccccc3Sc3ccc(C(F)(F)F)cc32)CC1` and report it.
74%

* * *

A collection of compounds and their measured % INHIBITION
- Test system: Serotonin (5-Hydroxytryptamine) 5-HT2, Non-Selective
- assay-remarks: Assay 271600 radioligand binding, 5-HT2 non-selective
- Set-up: species or system Wistar Rat
- measurement-setup: 10 μM
Please state the figure in %; there is no need to write the unit.

As a guide, the following entries are already answered.
{"columns": ["query-smiles", "% INHIBITION (%)"],
 "data": [
  ["FC(F)(F)c1ccc2c(c1)N(CCCC1CCNCC1)c1ccccc1S2", 84],
  ["CNCC(=O)NCCN1CCC(CCCN2c3ccccc3Sc3ccc(C(F)(F)F)cc32)CC1", 85],
  ["NCC(=O)NCCN1CCN(CCCN2c3ccccc3Sc3ccc(C(F)(F)F)cc32)CC1", 91],
  ["CN(C)S(=O)(=O)c1ccc2c(c1)N(CCCN1CCN(CCN)CC1)c1ccccc1S2", 83],
  ["NCC(=O)NCCN1CCN(CCCCN2c3ccccc3Sc3ccc(C(F)(F)F)cc32)CC1", 89],
  ["NCCCN1CCC(CCCN2c3ccccc3Sc3ccc(C(F)(F)F)cc32)CC1", 82],
  ["NCCN1CCC(CCN2c3ccccc3Sc3ccc(C(F)(F)F)cc32)CC1", 94],
  ["FC(F)(F)c1ccc2c(c1)N(CCC1CCNCC1)c1ccccc1S2", 87],
  ["NCCN1CCN(CCCCN2c3ccccc3Sc3ccc(C(F)(F)F)cc32)CC1", 71]
]}

Using the record for `FC(F)(F)c1ccc2c(c1)N(CCCN1CCNCC1)c1ccccc1S2` , state its measured % INHIBITION.
82

* * *

- system-under-test: Serotonin (5-Hydroxytryptamine) 5-HT1A (Homo sapiens)
- Construct: expressed in transfected cells; host or cells: CHO cells
- assay-remarks: Radioligand binding, 5-HT1A ([3H] 8-OH-DPAT)
- measurement-setup: 0.1 μM
reported-metric: % INHIBITION
Please answer using a numeric value trailed by its unit.

Here is how some compounds turned out for % INHIBITION.
{"columns": ["query-smiles", "% INHIBITION"],
 "data": [
  ["NCCN1CCC(CCN2c3ccccc3Sc3ccc(C(F)(F)F)cc32)CC1", "4%"],
  ["NCCN1CCN(CCCCN2c3ccccc3Sc3ccc(C(F)(F)F)cc32)CC1", "5%"],
  ["NCC(=O)NCCN1CCN(CCCCN2c3ccccc3Sc3ccc(C(F)(F)F)cc32)CC1", "6%"]
]}

Provide Serotonin (5-Hydroxytryptamine) 5-HT1A (Homo sapiens) % INHIBITION reading for `FC(F)(F)c1ccc2c(c1)N(CCC1CCNCC1)c1ccccc1S2` .
2%
